Hello, the source for this data is PubChem BioAssay (NCI), in case you need it.

- Test system: NCI-H460 lung
- Assay Comment: NCI tumour cell line growth inhibition, 48 h; in the data active = GI50 below about 0.43 µM; inactive = the rest
Outcomes: active, inactive

[[record]]
molecule = "Nc1nc(N(Cc2ccccc2)c2ccccc2)c2cn[nH]c2n1"
class_assignment = "inactive"

[[record]]
molecule = "CS(=O)(=O)CCNCc1ccc(-c2ccc3ncnc(Nc4ccc(OCc5ccccc5)cc4)c3c2)o1"
class_assignment = "inactive"

[[record]]
molecule = "N#CC(C#N)=C1Nc2ccccc2S1"
class_assignment = "inactive"

[[record]]
molecule = "O=C(Nc1ccncc1)C(=O)c1cn(S(=O)(=O)c2cccc(F)c2)c2ccccc12"
class_assignment = "inactive"

[[record]]
molecule = "O=C(O)CCNC1CCCCC1"
class_assignment = "inactive"

[[record]]
molecule = "CCCCCCCC(=O)OCC/C=C/C1OC1C1OC(=O)/C=C\\C=C\\c2nc(oc2C)/C=C(/C)CCC2OC2C1OC(=O)NC(C)=O (configuration not stated)"
class_assignment = "active"

[[record]]
molecule = "CCOC1Oc2ccc(C)cc2C(=O)/C1=C\\Nc1ccc(C(N)=O)cc1 (configuration not stated)"
class_assignment = "inactive"

[[record]]
molecule = "O=C(CC1C(=O)NN(c2ccc(Br)cc2)C1=O)c1cc(O)ccc1O (configuration not stated)"
class_assignment = "inactive"

[[record]]
molecule = "COc1ccc(-c2nc(-c3nc4ccc(Cl)cc4[nH]3)c3ccccn23)cc1"
class_assignment = "inactive"

[[record]]
molecule = "O=C1C(Cl)=C(NCCN2CCOCC2)C(=O)c2ncccc21"
class_assignment = "inactive"

[[record]]
molecule = "C[N+]1=C(/C=C/c2ccc(O)c3ncccc23)C(C)(C)c2ccccc21"
class_assignment = "inactive"

[[record]]
molecule = "O=C1CCC(N2C(=O)c3ccccc3C2=O)C(=O)N1CO (configuration not stated)"
class_assignment = "inactive"

[[record]]
molecule = "O=c1cc(-c2ccccc2)oc2cc(OC/C(=N/O)c3ccccc3)ccc12"
class_assignment = "inactive"

[[record]]
molecule = "O=C(Nc1ccc(-c2nc(N3CCOCC3)c3cccn3n2)cc1)Nc1cccnc1"
class_assignment = "active"

[[record]]
molecule = "OCCCNc1nc(=S)[nH]c2[nH]ncc12"
class_assignment = "inactive"

[[record]]
molecule = "Cc1cc(-c2cnn3c(NCC4CC(C)(O)C4)cc(Oc4cccnc4)nc23)ccc1C(=O)NC1CC1 (configuration not stated)"
class_assignment = "inactive"

[[record]]
molecule = "COc1ccc2c(c1)CCCN2c1c2ccccc2nc2ccccc12"
class_assignment = "active"


###

Some molecules, each annotated with its measured TGI.
- Tested on: HCT-116 colon
- Assay Comment: NCI tumour cell line growth inhibition, 48 h
Value Type: TGI

[[record]]
molecule = "Nc1cccnc1NCC1(CO)CCCC1"
measured = "> 100 µM"

[[record]]
molecule = "O=C1NC(=O)C(CCC(=O)c2ccc3ccccc3c2)C(=O)N1"
measured = "> 100 µM"

[[record]]
molecule = "COc1cc2ncn(-c3cc(OCc4cccs4)c(C(N)=O)s3)c2cc1OC"
measured = "> 25 µM"

[[record]]
molecule = "C/C(CC(=O)Nc1cc(C)ccc1C)=N\\NC(=O)c1ccncc1"
measured = "> 100 µM"

[[record]]
molecule = "NC(=O)COC(=O)c1c(Cl)nc2sccn12"
measured = "> 31.6 µM"

[[record]]
molecule = "CCOC(=O)C1(Cc2ccccc2)C=CN(C(=O)c2ccccc2)C=C1"
measured = "> 100 µM"

[[record]]
molecule = "COC1(C)CP(=O)(OC(C)C)CC(C)=C1Cl (configuration not stated)"
measured = "21 µM"

[[record]]
molecule = "O=C(O)/C=C(\\c1nc2ccc([N+](=O)[O-])cc2[nH]1)c1cc(Cl)ccc1O"
measured = "7.03 µM"

[[record]]
molecule = "COC(=O)c1cc(C)ccc1C1CN=NC12Cc1ccc(C)cc1C2=O (configuration not stated)"
measured = "> 100 µM"

[[record]]
molecule = "COc1cc(C(=O)CBr)c(OC)cc1C"
measured = "> 100 µM"

[[record]]
molecule = "COc1ccc2c(c1)CCCN2c1c2ccccc2nc2ccccc12"
measured = "14.3 µM"

[[record]]
molecule = "Cc1ccc([N+](=O)[O-])cc1S(=O)(=O)Nc1ccc(C2=NN(c3ccc([N+](=O)[O-])cc3[N+](=O)[O-])C(c3cccs3)C2)cc1 (configuration not stated)"
measured = "29.3 µM"

[[record]]
molecule = "COC(=O)/C=C(/C=C1/C(C#N)=C(N)N(c2ccc(Cl)cc2)C1(C)/C(=C/C(=O)OC)C(=O)OC)C(=O)OC (configuration not stated)"
measured = "> 100 µM"

[[record]]
molecule = "COC(=O)c1cc2c(cc1CC1Cc3cc4c(cc3C1=O)CCC4)CCC2 (configuration not stated)"
measured = "> 100 µM"

[[record]]
molecule = "Cc1cc2c(cc1Cl)SC1=NN(C)S(=O)N1S2(=O)=O (configuration not stated)"
measured = "> 100 µM"

[[record]]
molecule = "O=C(O)CCNC1CCCCC1"
measured = "> 100 µM"

[[record]]
molecule = "C[C@@H]1OC(=O)N2CCCC(=C3SCCCS3)C12 (some centres not stated)"
measured = "> 100 µM"

[[record]]
molecule = "COc1ccc2c(c1)[n+](=O)c(C(=O)C/C(=N/OCCCc1ccccc1)C(=O)NC13CC4CC(CC(C4)C1)C3)c(C)n2[O-]"
measured = "> 100 µM"

[[record]]
molecule = "Cc1nc(-c2cc3c(ccc4ccccc43)oc2=O)cs1"
measured = "> 100 µM"

[[record]]
molecule = "O=C(O)CCCn1nnc2c(=O)[nH][nH]c(=O)c21"
measured = "> 100 µM"

[[record]]
molecule = "CCOC(=O)c1cc2c([nH]1)c(O)cc1c2ccn1Cc1ccccc1"
measured = "23.8 µM"

[[record]]
molecule = "C=C(C[C@](O)(C(=O)/C=C/c1ccc(Cl)cc1)C(=O)OC)c1ccccc1"
measured = "3.96 µM"

[[record]]
molecule = "O=c1[nH]nc(-c2ccccc2)n1/N=C/c1ccc([N+](=O)[O-])cc1"
measured = "> 100 µM"

[[record]]
molecule = "Clc1ccccc1-c1nc2ccc(C34CC5CC(CC(C5)C3)C4)cc2[nH]1"
measured = "> 100 µM"

[[record]]
molecule = "CCCCC(=O)c1ccc2ccccc2c1O"
measured = "> 100 µM"

[[record]]
molecule = "O=[N+]([O-])c1ccc(C=NC2CCCCC2)cc1"
measured = "> 100 µM"

[[record]]
molecule = "O=C(O)CCSC(=O)Nc1ccc([N+](=O)[O-])cc1"
measured = "> 100 µM"

[[record]]
molecule = "C[N+]1=C(/C=C/c2ccc(O)c3ncccc23)C(C)(C)c2ccccc21"
measured = "10.5 µM"

[[record]]
molecule = "O=c1oc2ccccc2cc1-c1csc(Nc2ccc(F)cc2)n1"
measured = "5.65 µM"

[[record]]
molecule = "O=C(O)C(=Cc1ccc(-c2ccccc2)cc1)C(=O)O"
measured = "24.7 µM"

[[record]]
molecule = "O=C(O)c1ccccc1/C=N/NC1=NCCN1"
measured = "> 100 µM"

[[record]]
molecule = "C/C(O)=C(\\N=O)C(=O)Nc1ccc(Cl)cc1Cl"
measured = "> 100 µM"

